Species: Rattus norvegicus
Assay: Open TG-GATES - Regimen: Single
Type: toxicity, organism-based, Sprague-Dawley
Parameters: regimen Single, gender Male, age 6 weeks
Conditions: in vivo, po, 100 mg/kg, 6 h, tissue Blood, route gavage, dose level Low
Tick Condition met if Mono is 6% or greater. Tick Condition not met if Mono is less than 6%.

{"columns": ["compound", "assigned-label"],
 "data": [
  ["Clc1ccccc1CN1CCc2sccc2C1 [TICLOPIDINE]", "Condition not met"],
  ["O=C(O)c1cc(/N=N/c2ccc(S(=O)(=O)Nc3ccccn3)cc2)ccc1O [SULFASALAZINE]", "Condition not met"],
  ["CCc1cc(C(N)=S)ccn1 [ETHIONAMIDE]", "Condition met"]
]}

# evaluate next
## Input Does the reported Mono for C[C@H](CS)C(=O)N1CCC[C@H]1C(=O)O [CAPTOPRIL] fall at or above the 6% mark?
## Output Condition not met
